- Assayed System: recombinant HA of H7N9 A/Shanghai/02/2013, biotinylated (Influenza A virus A/Shanghai/02/2013 …, UniProt R4NN21, strain, biotin)
- Assay Method Text: Meso Scale Discovery (MSD) electrochemiluminescence binding assay
- Particulars: both partners purified

Binder	binding result
54-1G05 VL early intermediate, IgG (54-1G05 VH paired with VL from the early intermediate of clonotype B) (antibody, V domains shown, IgG format) VH: QVQLQQSGPRLVKPSQTLSLTCAISGDSVSSSSAVWTWIRQSPSRGLEWLGRTYYRSKWYDDYAVSVQGRITINPDTSKNQISLQLNSVTPDDTAVYYCARSSINIFGVFVMAMDVWGQGTAVTVSS VL: EIVLTQSPGTLSLSPGERATLSCRASQNVAVSYLAWYQQKPGQPPRLLIYGASSRATGIPDRFTGSGSGTDFTLTINRLEPEDSAVYYCQQYGSSPRALTFGGGTKVEIK	binds
54-4H03 (clonotype A), IgG (antibody, V domains shown) VH: QVQLQQSGPGLVKPSQTLSLTCAISGDSVSSNSVAWNWIRQSPSRGLEWLGRTYFRSKWYTDYAESLKSRMTINPDTSKNEFSLHLKSVTSDDTAVYYCVRGIIFNWPLGGWSFDLWGRGTLVSVSS VL: EIVLTQSPGTLSLSPGDSATLSCRASQSVASSYLAWYQQKPGQSPRLLIYATINRAADIPDRFSGSGSGTDFALTISRLEPEDFAVYYCQQFDSSSMYTFGQGTKLEIT	binds
54-1G05 (clonotype B), IgG (antibody, V domains shown, source: Expi293 cells, transfected, purified from the supernatant (Protein A)) VH: QVQLQQSGPRLVKPSQTLSLTCAISGDSVSSSSAVWTWIRQSPSRGLEWLGRTYYRSKWYDDYAVSVQGRITINPDTSKNQISLQLNSVTPDDTAVYYCARSSINIFGVFVMAMDVWGQGTAVTVSS VL: EIVLTQSPGTLSLSPGERVTLSCRASQTVYNSYLAWYQQKPGQAPTLLIYGTSTRATGVPDRFSGSGSGTVFTLTISRLEPEDFAVYFCQQYSTSPRALTFGGGTKVEIK	binds

Data origin, for the record: paper PMC7486241
